From: PubChem BioAssay AID248

// values below are reported T/C
- Tested on: L1210 leukemia ip in BDF1 mice, survival T/C
- protocol: NCI In Vivo Anticancer Drug Screen. Data for tumor model L1210 Leukemia (intraperitoneal) in B6D2F1 (BDF1) mice
- protocol-conditions: endpoint: mean survival time; dose: 300.0 mg/kg/injection; schedule: Q01DX001 (ip); vehicle: saline; higher = longer survival
Inconclusive results and toxic doses are left out.
attribute-measured: T/C

> print(dat)
                                   molecule                              study.system  attribute.measured            result
1  Cc1ccc(S(=O)(=O)N(C)c2ccc(C(=O)O)cc2F)cc1  L1210 leukemia ip in BDF1 mice, survival T/C                 T/C   98 % of control
2                        O=c1[nH]c(Cl)ncc1F  L1210 leukemia ip in BDF1 mice, survival T/C                 T/C  102 % of control
3  C[N+]1(CC2CO2)CCOCC1 (centres undefined)  L1210 leukemia ip in BDF1 mice, survival T/C                 T/C   96 % of control
4       CC1(C)COc2cc([N+](=O)[O-])cc(N)c2N1  L1210 leukemia ip in BDF1 mice, survival T/C                 T/C   96 % of control
